B1: SMG5 (parent)
chain: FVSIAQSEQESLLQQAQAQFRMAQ

Variants of: B1
test_details: protein stability index of a GFP-peptide fusion (GPS, HEK-293T) (PSI 1-6); higher = more stable;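 also: lentivirally expressed fusions sorted by FACS into six bins by GFP to DsRed ratio, PSI derived from sequencing read proportions per bin multiplied by bin number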
condition: c terminus: a fixed tail appended
assay_endpoint: protein stability index
# output: bare number, no unit

Please review the following examples before continuing.
> print(dat)
   mutant.name  value.measured
1         Q15L            1.61
2         L13F             1.5
3         A18K            2.79
4         M22N            1.94
5         Q14S            2.54

## Input Item `S3C` : provide protein stability index
## Output 1.66

## Input Item `V2D` : provide protein stability index
## Output 3.77

## Input Item `R21K` : provide protein stability index
## Output 2.59

## Input Item `E10Y` : provide protein stability index
## Output 1.89
